Measured values drawn from patent US20190276542A1 for this set.

# systemTested: human PD1 expressed on a cell surface (human, UniProt Q15116 25-288)
# Sequence (Q15116 25-288): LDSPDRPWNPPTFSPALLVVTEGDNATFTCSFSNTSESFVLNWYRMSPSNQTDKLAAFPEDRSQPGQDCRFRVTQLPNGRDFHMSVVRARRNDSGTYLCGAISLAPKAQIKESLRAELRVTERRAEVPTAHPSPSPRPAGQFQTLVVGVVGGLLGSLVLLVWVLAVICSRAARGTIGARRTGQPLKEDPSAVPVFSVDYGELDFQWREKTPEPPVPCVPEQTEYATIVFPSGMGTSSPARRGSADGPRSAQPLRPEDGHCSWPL
# methodSummary: cell-based or functional assay
EC50 for IFN gamma production (pM), mixed lymphocyte reaction listing for selected binders.
# value in pM; strip the unit string

Solved cases below.
binder	reading
anti-hPD1 antibody #1 (antibody, V domains shown, also called Anti-hPD1 #1; Anti-PD1 #1) VH: QVQLVQSGAEVKKPGASVKVSCKASGYTFTNYWIHWVRQAPGQGLEWMGEIDPYDSYTNYNQKFKGRVTMTVDKSTSTVYMELSSLRSEDTAVYYCARPGFTYGGMDFWGQGTLVTVSS VL: DIQMTQSPSSLSASVGDRVTITCKSSQSLFNSGNQKNYLAWYQQKPGKVPKLLIYGASTRDSGVPYRFSGSGSGTDFTLTISSLQPEDVATYYCQNDHYYPYTFGGGTKVEIKR	890
anti-hPD1 antibody #4 (antibody, human IgG4, V domains shown, also called Anti-hPD1 #4; Anti-PD1 #4) VH: QVQLVQSGAEVKKPGASVKVSCKASGYTFTNYWMHWVRQAPGQGLEWMGEIDPFDSYTNYNQKFKGRVTMTRDTSTSTVYMELSSLTSEDTAVYYCARPGYTYGGMDFWGQGTLVTVSS VL: DIQMTQSPSSLSASVGDRVTITCKSSQSLLNSGNQKNYLAWYQQKPGKPPKLLIYGASTRDSGVPSRFSGSGSGTDFTLTISSLQPEDVATYYCQNDHYYPYTFGGGTKVEIK	1540
anti-hPD1 antibody #10 (antibody, human IgG4, V domains shown, also called Anti-hPD1 #10; Anti-PD1 #10) VH: QVQLVQSGAEVKKPGASVKVSCKASGYTFTSYWMHWVRQAPGQGLEWMGEIDPFDSYTNYNQKFKGRVTMTIDKSTNTVYMELSSLGSEDTAVYYCARPGYTYGGMDFWGQGTLVTVSS VL: DIVMTQSPDSLAVSLGERATINCRSSQSLFISGNQKNYLAWYQQKPGQPPKLLIYGASTRDSGVPDRFSGSGSGTDFTLTISSLQAEDVAVYYCQNNHYYPYTFGGGTKVEIK	2210
anti-hPD1 antibody #7 (antibody, human IgG4, V domains shown, also called Anti-hPD1 #7; Anti-PD1 #7) VH: QVQLVQSGAEVKKPGASVKVSCKASGYTFTNYWIHWVRQAPGQGLEWMGEIDPYDSYTNYNQKFKGRVTMTIDKSTNTVYMELSSLRSEDTAVYYCARPGLTYGGMDFWGQGTLVTVSS VL: DIVMTQSPDSLAVSLGERATINCRSSQSLFISGNQKNYLAWYQQKPGQPPKLLIYGASTRESGVPDRFSGSGSGTDFTLTISSLQAEDVAVYYCQNNHYYPYTFGGGTKVEIK	1460

Turning now to a further record.
Form field EC50 for IFN gamma production (pM), mixed lymphocyte reaction, entry anti-hPD1 antibody #3 (antibody, human IgG4, V domains shown, also called Anti-hPD1 #3; Anti-PD1 #3) VH: QVQLVQSGAEVKKPGASVKVSCKASSYTFTNYWMHWVRQAPGQGLEWMGEIDPYDSYTNYNQKFKGRVTMTIDTSTSTVYMELSSLTSEDTAVYYCARPGFTYGGMDFWGQGTLVTVSS VL: DIQMTQSPSSLSASVGDRVTITCKSSQSLFNSGNQKNYLAWYQQKPGKVPKLLIYGASTRESGVPARFSGSGSGTDFTLTISSLQAEDVATYYCQNDHYYPYTFGGGTKVEIK : 2220
